Listing: IC50 of selected binders
# tested_on: T1, Recombinant human PDGF-BB (human, UniProt P01127 82-190)
# T1 construct: For SPR it was chemically biotinylated on primary amines and captured on neutravidin; also called PDGF-BB (human); Reliatech 200-055
# procedure_summary: receptor competition ELISA: DARPin preincubated with PDGF-BB, free PDGF-BB captured on coated PDGFRbeta/Fc; mean IC50
Give just the number in pM; leave the unit off.

[
  {
    "binder": "DARPin #45 (designed binder) MRGSHHHHHHGSDLGKKLLEAARAGQDDEVRELLKAGADVNAKDKSGHTPLHLAAYSGHLEIVEVLLKAGADVNAKDQEGTTPLHFAASVGHLEIVEVLLKAGADVNAQDHYGATPADLAALIGHEDIAEVLQKLN",
    "reported_property": "IC50",
    "reported_measurement": 160
  }
]

## Input What value of measured IC50 is listed for DARPin #34 (designed binder) MRGSHHHHHHGSDLGDKLLQSDLGRKLLHAARSGQDDEVRILLAAGADVNAKDEDGTTPLHYAAAWGHLEIVEVLLKAGADVNAQDIYGATPADLAAYIGHEDIAEVLQKLN ?
## Output 210

Numbers sourced from patent US20140005125A1.
